src = the supplement of paper PMC10567573

B1: POMT2 (parent)
chain: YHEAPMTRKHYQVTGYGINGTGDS

# Variants of: B1
# assay_overview: protein stability index of a GFP-peptide fusion (GPS, HEK-293T) (PSI 1-6); higher = more stable;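 further: lentivirally expressed fusions sorted by FACS into six bins by GFP to DsRed ratio, PSI derived from sequencing read proportions per bin multiplied by bin number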
# condition_label: c terminus: a fixed tail appended
test_readout: protein stability index
Just the number, please, no unit attached.

Entry R8E : reported protein stability index = ? 3

Entry V13T : reported protein stability index = ? 2.6

Next:
Entry I18W : reported protein stability index = ? 1.67

Entry I18E : reported protein stability index = ? 2.95
